Target: Mitogen-activated protein kinase 9 (Homo sapiens, UniProt P45984)
Sequence (P45984 whole entry): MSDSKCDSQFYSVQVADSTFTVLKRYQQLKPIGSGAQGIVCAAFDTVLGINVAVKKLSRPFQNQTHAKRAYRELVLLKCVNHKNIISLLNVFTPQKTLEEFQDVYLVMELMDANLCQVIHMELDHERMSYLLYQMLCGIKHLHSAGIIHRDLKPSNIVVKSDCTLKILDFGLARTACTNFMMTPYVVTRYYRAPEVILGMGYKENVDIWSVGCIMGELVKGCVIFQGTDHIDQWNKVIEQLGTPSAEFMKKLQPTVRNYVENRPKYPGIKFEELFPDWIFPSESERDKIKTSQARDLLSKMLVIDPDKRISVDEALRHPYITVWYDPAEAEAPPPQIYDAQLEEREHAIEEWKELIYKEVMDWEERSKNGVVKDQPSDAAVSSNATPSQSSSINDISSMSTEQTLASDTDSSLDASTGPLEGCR
Test: Inhibition of JNK2 (unknown origin)
readout name: IC50

**Q:** Using the record for CCc1cc(Nc2nccc(-c3c(-c4ccc(OC)c(C(=O)Nc5c(F)cccc5F)c4)nc4ccccn34)n2)c(OC)cc1N1CCC(N2CCN(S(C)(=O)=O)CC2)CC1 , report its IC50.
**A:** > 10 µM

====

Target: Tyrosine-protein kinase JAK2 (Homo sapiens, UniProt O60674)
Sequence (O60674 whole entry): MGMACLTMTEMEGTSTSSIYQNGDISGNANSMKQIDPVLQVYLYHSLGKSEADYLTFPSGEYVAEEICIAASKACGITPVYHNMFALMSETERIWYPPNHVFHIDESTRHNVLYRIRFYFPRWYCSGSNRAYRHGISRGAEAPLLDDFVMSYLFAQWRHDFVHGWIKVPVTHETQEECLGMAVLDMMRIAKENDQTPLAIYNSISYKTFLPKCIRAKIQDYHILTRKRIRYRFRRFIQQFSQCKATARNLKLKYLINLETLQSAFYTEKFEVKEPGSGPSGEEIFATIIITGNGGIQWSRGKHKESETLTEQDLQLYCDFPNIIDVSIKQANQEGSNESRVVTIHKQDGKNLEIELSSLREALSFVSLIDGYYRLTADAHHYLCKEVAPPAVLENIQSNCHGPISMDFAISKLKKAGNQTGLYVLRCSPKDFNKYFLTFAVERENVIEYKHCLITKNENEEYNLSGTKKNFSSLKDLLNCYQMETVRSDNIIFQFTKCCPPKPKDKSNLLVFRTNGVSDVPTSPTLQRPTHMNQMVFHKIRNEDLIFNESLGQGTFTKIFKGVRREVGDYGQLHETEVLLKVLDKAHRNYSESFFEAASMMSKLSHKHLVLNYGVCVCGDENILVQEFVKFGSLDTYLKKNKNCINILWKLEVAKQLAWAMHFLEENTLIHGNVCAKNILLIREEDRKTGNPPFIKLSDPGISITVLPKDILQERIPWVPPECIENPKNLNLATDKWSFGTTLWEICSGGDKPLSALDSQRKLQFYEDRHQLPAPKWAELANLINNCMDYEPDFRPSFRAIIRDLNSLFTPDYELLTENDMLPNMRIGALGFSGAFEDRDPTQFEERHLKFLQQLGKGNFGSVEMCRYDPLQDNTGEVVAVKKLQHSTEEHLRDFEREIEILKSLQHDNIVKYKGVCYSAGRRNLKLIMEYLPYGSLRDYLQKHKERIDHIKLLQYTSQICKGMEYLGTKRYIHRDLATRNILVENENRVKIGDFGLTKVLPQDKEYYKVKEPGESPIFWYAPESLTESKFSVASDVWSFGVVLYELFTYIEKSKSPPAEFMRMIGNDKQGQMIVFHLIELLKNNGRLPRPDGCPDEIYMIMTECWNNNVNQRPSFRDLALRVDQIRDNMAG
pIC50: −log10 of the molar value.
readout name: pIC50

**Q:** Kindly state the measured pIC50 obtained for CCc1cc(Nc2nccc(-c3c(-c4ccc(OC)c(C(=O)Nc5c(F)cccc5F)c4)nc4ccccn34)n2)c(OC)cc1N1CCC(N2CCN(S(C)(=O)=O)CC2)CC1 with Tyrosine-protein kinase JAK2 (Homo sapiens, UniProt O60674).
**A:** < 4.80

Data provenance is ChEMBL document CHEMBL5678798.
